Entry source: ChEMBL document CHEMBL4052714

# Test system: Staphylococcus aureus
# ASSAY_DETAILS: Antibacterial activity against erythromycin-susceptible Staphylococcus aureus ATCC 25923
# Assay type: functional
READOUT: MIC
# output: numeric value plus its unit

Prompt line: # get_value(readout= MIC, system= Staphylococcus aureus) for CC[C@H]1OC(=O)[C@H](C)[C@@H](O[C@H]2C[C@@](C)(OC)[C@@H](OC(=O)NCc3cn(Cc4ccccc4C)nn3)[C@H](C)O2)[C@H](C)[C@@H](O[C@@H]2O[C@H](C)C[C@H](N(C)C)[C@H]2O)[C@](C)(O)C[C@@H](C)CN(C)[C@H](C)[C@H]2OC(=O)O[C@@]21C
Response line: 4 µg/mL

Prompt line: What measured MIC is associated with CC[C@H]1OC(=O)[C@H](C)[C@@H](O[C@H]2C[C@@](C)(OC)[C@@H](OC(=O)NCc3cn(Cc4ccc(Cl)cc4Cl)nn3)[C@H](C)O2)[C@H](C)[C@@H](O[C@@H]2O[C@H](C)C[C@H](N(C)C)[C@H]2O)[C@](C)(O)C[C@@H](C)CN(C)[C@H](C)[C@@H](O)[C@]1(C)O on Staphylococcus aureus?
Response line: 1 µg/mL

---

# System: Staphylococcus aureus
# ASSAY_DETAILS: Antibacterial activity against erythromycin-susceptible Staphylococcus aureus ATCC 25923
# Type: functional
Give MIC for every item shown.
Record the value in µg/mL, omitting the unit from your answer.

Prompt line: Notebook entry, Staphylococcus aureus assay: MIC of CC[C@H]1OC(=O)[C@H](C)[C@@H](O[C@H]2C[C@@](C)(OC)[C@@H](OC(=O)NCc3cn(Cc4ccc(Cl)cc4)nn3)[C@H](C)O2)[C@H](C)[C@@H](O[C@@H]2O[C@H](C)C[C@H](N(C)C)[C@H]2O)[C@](C)(O)C[C@@H](C)CN(C)[C@H](C)[C@H]2OC(=O)O[C@@]21C = ?
Response line: 4

Prompt line: What MIC appears in the records for this compound with Staphylococcus aureus? CC[C@H]1OC(=O)[C@H](C)[C@@H](O[C@H]2C[C@@](C)(OC)[C@@H](OC(=O)NCc3cn(Cc4c(Cl)cccc4Cl)nn3)[C@H](C)O2)[C@H](C)[C@@H](O[C@@H]2O[C@H](C)C[C@H](N(C)C)[C@H]2O)[C@](C)(O)C[C@@H](C)CN(C)[C@H](C)[C@H]2OC(=O)O[C@@]21C
Response line: 4

---

# System: Staphylococcus aureus
# ASSAY_DETAILS: Antibacterial activity against erythromycin-susceptible Staphylococcus aureus ATCC 25923
# Format: functional
READOUT: MIC (µg/mL)
Report as a plain number; the unit µg/mL is understood.

Prompt line: Name the reported MIC value associated with the compound CC[C@H]1OC(=O)[C@H](C)[C@@H](O[C@H]2C[C@@](C)(OC)[C@@H](OC(=O)NCc3cn(Cc4ccc(F)cc4)nn3)[C@H](C)O2)[C@H](C)[C@@H](O[C@@H]2O[C@H](C)C[C@H](N(C)C)[C@H]2O)[C@](C)(O)C[C@@H](C)CN(C)[C@H](C)[C@H]2OC(=O)O[C@@]21C
Response line: 4

Prompt line: What measured MIC goes with CC[C@H]1OC(=O)[C@H](C)[C@@H](O[C@H]2C[C@@](C)(OC)[C@@H](O)[C@H](C)O2)[C@H](C)[C@@H](O[C@@H]2O[C@H](C)C[C@H](N(C)C)[C@H]2O)[C@](C)(O)C[C@@H](C)CN(C)[C@H](C)[C@@H](O)[C@]1(C)O [AZITHROMYCIN] ?
Response line: 0.25
